assay.details: SNAC plasma pharmacokinetics after ten once-daily doses of oral semaglutide
Format: in vivo, human
particulars: read-out: Cmax,Day10; ESRD (n = 11); after tenth dose; geometric mean (CV)
measurement.label: Cmax (nM)
Expressed in nM, but write only the number.

*Q* Give the reported value of Cmax for this record: O=C([O-])CCCCCCCNC(=O)c1ccccc1O.[Na+]
*A* 936

From: paper PMC6267549
